- Test Target: Caspase-1 (Homo sapiens)
- Sequence (P29466 120-297 limits assumed): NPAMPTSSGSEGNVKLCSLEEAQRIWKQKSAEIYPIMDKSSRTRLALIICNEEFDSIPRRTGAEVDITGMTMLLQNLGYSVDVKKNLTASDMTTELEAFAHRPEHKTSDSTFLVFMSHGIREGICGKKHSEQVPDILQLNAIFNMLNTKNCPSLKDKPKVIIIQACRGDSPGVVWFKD
- Sequence (P29466 317-404 limits assumed): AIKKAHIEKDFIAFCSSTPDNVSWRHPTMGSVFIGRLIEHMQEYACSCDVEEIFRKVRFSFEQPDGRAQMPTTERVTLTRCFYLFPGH
- Protocol Text: Caspase-1 enzyme inhibition (Ki)
- Type: biochemical
pKi: −log10 of the molar value.
Observable: pKi

Reference set (10 entries):
stdin: Name the reported pKi value associated with the compound CC(C)[C@H](NC(=O)c1cnnc2ccccc12)C(=O)N1CCC[C@H]1C(=O)N[C@H](C=O)CC(=O)O [Example 5s]
stdout: 6.00 to 8.00

stdin: Also check CC(C(=O)N[C@H](C(=O)N1CCC[C@H]1C(=O)N[C@H](C=O)CC(=O)O)C(C)C)c1ccc(C(=O)c2cccs2)cc1 (some centres unmarked) [Example 5aj]
stdout: 6.00 to 8.00

stdin: Also check CC(C)[C@H](NC(=O)c1cccc2c1Cc1ccccc1-2)C(=O)N1CCC[C@H]1C(=O)N[C@H](C=O)CC(=O)O [Example 5j]
stdout: > 8.00

stdin: Also check CC(C)[C@H](NC(=O)c1cccc2c1-c1ccccc1C2)C(=O)N1CCC[C@H]1C(=O)N[C@H](C=O)CC(=O)O [Example 5i]
stdout: > 8.00

stdin: Also check COc1c(C)cc(C(=O)N[C@H](C(=O)N2CCC[C@H]2C(=O)N[C@H](C=O)CC(=O)O)C(C)C)cc1C [Example 5ac]
stdout: > 8.00

stdin: Also check CC(C)[C@H](NC(=O)c1ccccc1C(=O)N[C@@H](C)c1ccccc1)C(=O)N1CCC[C@H]1C(=O)N[C@H](C=O)CC(=O)O [Example 5x]
stdout: > 8.00

stdin: Also check CCCCCCc1ccc(C(=O)N[C@H](C(=O)N2CCC[C@H]2C(=O)N[C@H](C=O)CC(=O)O)C(C)C)cc1 [Example 5z]
stdout: > 8.00

stdin: Also check CCCCCCOc1ccc(C(=O)N[C@H](C(=O)N2CCC[C@H]2C(=O)N[C@H](C=O)CC(=O)O)C(C)C)cc1 [Example 5y]
stdout: > 8.00

stdin: Also check CC(C)[C@H](NC(=O)C(c1ccc(Cl)cc1)c1ccc(Cl)cc1)C(=O)N1CCC[C@H]1C(=O)N[C@H](C=O)CC(=O)O [Example 5p]
stdout: 6.00 to 8.00

stdin: Also check CC(C)Cc1ccc(C(C)C(=O)N[C@H](C(=O)N2CCC[C@H]2C(=O)N[C@H](C=O)CC(=O)O)C(C)C)cc1 (some centres unmarked) [Example 5v]
stdout: 6.00 to 8.00

Further cases:
stdin: Name the reported pKi value associated with the compound CC(C)[C@H](NC(=O)c1ccccc1C(=O)c1ccc(F)cc1)C(=O)N1CCC[C@H]1C(=O)N[C@H](C=O)CC(=O)O [Example 5l]
stdout: 6.00 to 8.00

stdin: Also check COc1cc(CC(=O)N[C@H](C(=O)N2CCC[C@H]2C(=O)N[C@H](C=O)CC(=O)O)C(C)C)ccc1OCc1ccccc1 [Example 5ak]
stdout: 6.00 to 8.00

stdin: Also check CC(C)[C@H](NC(=O)c1ccc2ncccc2c1)C(=O)N1CCC[C@H]1C(=O)N[C@H](C=O)CC(=O)O [Example 5ad]
stdout: > 8.00

stdin: Also check CC(C)[C@H](NC(=O)c1cnc2ccccc2n1)C(=O)N1CCC[C@H]1C(=O)N[C@H](C=O)CC(=O)O [Example 5w]
stdout: 6.00 to 8.00

----------
- Test Target: Caspase-1 (Homo sapiens)
- Protocol Text: Caspase-1 enzyme inhibition (Ki)
- Assay type: biochemical
- Test Parameters: substrate Suc-YVAD-pNA 80 μM, 37° C., pH 7.5
pKi: −log10 of the molar value.
Observable: pKi

Reference set (4 entries):
stdin: Name the reported pKi value associated with the molecule COC(=O)N[C@@H]1C[C@@H](C(=O)N[C@H](C=O)CC(=O)O)N(C(=O)[C@@H](NC(=O)c2nccc3ccccc23)C(C)C)C1
stdout: > 8.00

stdin: Also check C[C@H](NC(=O)c1ccc(NC(=O)Cc2ccccc2)c(Cl)c1)C(=O)N1CCC[C@H]1C(=O)N[C@H](C=O)CC(=O)O [Example 122u]
stdout: > 8.00

stdin: Also check CCCCCCOc1ccc(C(=O)N[C@H](C(=O)N2CCC[C@H]2C(=O)N[C@H](C=O)CC(=O)O)C(C)C)cc1
stdout: > 8.00

stdin: Also check C[C@H](NC(=O)c1cccc2c1-c1ccccc1C2=O)C(=O)N1CCC[C@H]1C(=O)N[C@H](C=O)CC(=O)O [Example 122a]
stdout: > 8.00

Would you kindly look at the next entry?
stdin: Name the reported pKi value associated with the molecule C[C@H](NC(=O)c1ccc2ncccc2c1)C(=O)N1CCC[C@H]1C(=O)N[C@H](C=O)CC(=O)O [Example 122q]
stdout: 6.00 to 8.00
